system_name: T1, full-length beta-Catenin (Uniprot ID P35222) (Homo sapiens (Human), UniProt P35222 1-781)
T1 construct: Tags are not described; Also used here as the target of the DLD1 TCF reporter read-out (endogenous beta-catenin in DLD1 cells); also called bCat; B-Catenin
T1 sequence: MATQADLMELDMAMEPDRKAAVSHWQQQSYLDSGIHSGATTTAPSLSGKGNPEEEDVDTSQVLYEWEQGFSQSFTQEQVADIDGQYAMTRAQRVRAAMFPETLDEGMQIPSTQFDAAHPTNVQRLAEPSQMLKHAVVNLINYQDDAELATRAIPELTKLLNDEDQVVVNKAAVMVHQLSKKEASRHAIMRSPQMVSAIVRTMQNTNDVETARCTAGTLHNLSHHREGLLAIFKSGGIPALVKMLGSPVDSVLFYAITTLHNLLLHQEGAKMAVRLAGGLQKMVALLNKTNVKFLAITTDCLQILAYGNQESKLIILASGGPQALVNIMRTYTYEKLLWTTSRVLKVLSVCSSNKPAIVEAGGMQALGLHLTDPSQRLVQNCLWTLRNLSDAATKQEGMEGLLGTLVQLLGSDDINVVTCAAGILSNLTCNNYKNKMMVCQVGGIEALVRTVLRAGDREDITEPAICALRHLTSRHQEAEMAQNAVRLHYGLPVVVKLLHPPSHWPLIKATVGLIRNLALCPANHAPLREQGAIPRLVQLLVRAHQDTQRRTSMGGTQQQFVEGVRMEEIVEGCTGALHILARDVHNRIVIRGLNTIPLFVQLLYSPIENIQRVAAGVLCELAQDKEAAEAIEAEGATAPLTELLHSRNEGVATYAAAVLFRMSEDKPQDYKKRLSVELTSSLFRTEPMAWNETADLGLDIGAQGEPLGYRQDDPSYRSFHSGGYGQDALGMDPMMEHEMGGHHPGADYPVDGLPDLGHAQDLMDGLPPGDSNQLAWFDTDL
test_details: fluorescence polarization competition; full-length beta-catenin with 5FAM-TCF4(10-53) probe, peptide titrated
Starred links: 1 amine or outer side, 2 acyl side, 3 side chain; linkers in the order of their positions; H or OH if unused. Positions of bridges follow the written chain, without caps; N, C: chain ends. Non-standard residues stand in square brackets, D forms with d. Primed or numbered codes have the meaning given here. PyrS2″ = (S)-3-amino-1-((pent-4-en-1-yloxy)carbonyl)pyrrolidine-3-carboxylic acid (stapling residue), C=CCCCOC(=O)N1CC[C@@](N[*:1])(C(=O)[*:2])C1; B5(16) = 2-amino-2-(pent-4-en-1-yl)hept-6-enoic acid = 2,2-bis(4-pentenyl)glycine (stitching residue), C=CCCCC(CCCC=C)(N[*:1])C(=O)[*:2]; B5(4) = 2,2-bis(4-pentenyl)glycine = 2-amino-2-(pent-4-en-1-yl)hept-6-enoic acid (stitching residue), C=CCCCC(CCCC=C)(N[*:1])C(=O)[*:2]; PyrS2 = (S)-3-amino-1-((pent-4-en-1-yloxy)carbonyl)pyrrolidine-3-carboxylic acid, C=CCCCOC(=O)N1CC[C@@](N[*:1])(C(=O)[*:2])C1; Phe(2-Cl) = N[C@@H](Cc1ccccc1Cl)C(=O)O; Bta = N[C@@H](Cc1csc2ccccc12)C(=O)O; αAllylPro = C=CC[C@@]1(C(=O)O)CCCN1
measured_parameter: pIC50
Give only the number. pIC50 is defined as minus log10 of concentration in molar units.

{"columns": ["binder", "pIC50"],
 "data": [
  ["Ac-[αAllylPro]DF[B5(16)]DDAAFT[PyrS2″][Phe(2-Cl)][Bta]Q-NH2 (staple 1-4, 4-11, also called Ac-PL3-Asp-Phe-B5-Asp-Asp-Ala-Ala-Phe-Thr-PyrS2-2C1F-BztA-Gln-NH2) [I-1043]", 7.92],
  ["Ac-[αAllylPro]DF[B5(4)]DDAAFS[PyrS2][Phe(2-Cl)][Bta]S-NH2 (staple 1-4, 4-11, also called Ac-PL3-Asp-Phe-B5-Asp-Asp-Ala-Ala-Phe-Ser-PyrS2-2C1F-BztA-Ser-NH2) [I-1051]", 7.85],
  ["Ac-[αAllylPro]DF[B5(4)]DDAAFT[PyrS2″][Phe(2-Cl)][Bta]S-NH2 (staple 1-4, 4-11, also called Ac-PL3-Asp-Phe-B5-Asp-Asp-Ala-Ala-Phe-Thr-PyrS2-2C1F-BztA-Ser-NH2) [I-1049]", 8.22],
  ["Ac-[αAllylPro]DF[B5(16)]DDAAFN[PyrS2″][Phe(2-Cl)][Bta]Q-NH2 (staple 1-4, 4-11, also called Ac-PL3-Asp-Phe-B5-Asp-Asp-Ala-Ala-Phe-Asn-PyrS2-2C1F-BztA-Gln-NH2) [I-1041]", 8.10],
  ["Ac-[αAllylPro]DF[B5(16)]DDAAFS[PyrS2″][Phe(2-Cl)][Bta]Q-NH2 (staple 1-4, 4-11, also called Ac-PL3-Asp-Phe-B5-Asp-Asp-Ala-Ala-Phe-Ser-PyrS2-2C1F-BztA-Gln-NH2) [I-1045]", 8.30]
]}

The record that follows has no pIC50 shown yet.
QUERY: State, in one line, measured pIC50 of Ac-[αAllylPro]DF[B5(16)]DDAAFN[PyrS2″][Phe(2-Cl)][Bta]S-NH2 (staple 1-4, 4-11, also called Ac-PL3-Asp-Phe-B5-Asp-Asp-Ala-Ala-Phe-Asn-PyrS2-2C1F-BztA-Ser-NH2) [I-1047]
RESULT: 8.30
